Recorded values, source patent US7507760B2.

Molecular target: rat brain N-type calcium channel subunits (α1B+α2δ+β1b cDNA subunits) (Rattus norvegicus)
Construct: expressed in transfected cells; host or cells: HEK 293
Assay: N-type calcium channel block, whole cell patch clamp in HEK 293 cells
Format: cell-based
Details: tonic block, low frequency stimulation 0.067 Hz, holding potential −80 mV to +10 mV, 5 mM BaCl2; read-out: IC50 at 0.067 Hz
Observed Property: log10 of IC50 (log10 of the value in nM)
Short version: log10 scale, IC50, nM.

Field: example entries. Status: answers known.
INSERT INTO measurements (molecule, tested_on, quantitative_readout) VALUES
  ('CN(CC(=O)N(c1ccccc1)c1ccccc1)[C@H]1CCN(C(c2ccccc2)c2ccccc2)C1', 'rat brain N-type calcium channel subunits (α1B+α2δ+β1b cDNA subunits) (Rattus norvegicus)', 2.46),
  ('CN(C(=O)NC(c1ccccc1)c1ccccc1)[C@H]1CCN(C(c2ccccc2)c2ccccc2)C1', 'rat brain N-type calcium channel subunits (α1B+α2δ+β1b cDNA subunits) (Rattus norvegicus)', 3.01),
  ('CN(C(=O)CC(c1ccccc1)c1ccccc1)[C@@H]1CCN(C(c2ccccc2)c2ccccn2)C1 (stereo partly drawn)', 'rat brain N-type calcium channel subunits (α1B+α2δ+β1b cDNA subunits) (Rattus norvegicus)', 2.56);

Ask: Fill in: log10 of IC50 of CN(C(=O)CC(c1ccccc1)c1ccccc1)[C@@H]1CCN(Cc2cccnc2)C1 is ___
Result: 3.48

Ask: Fill in: log10 of IC50 of CN(C(=O)CC(c1ccccc1)c1ccccc1)[C@@H]1CCN(Cc2ccccn2)C1 is ___
Result: 3.11

Ask: Fill in: log10 of IC50 of CN(C(=O)CC(c1ccccc1)c1ccccc1)[C@H]1CCN(Cc2ccncc2)C1 is ___
Result: 2.96

* * *

Target: human α1G T-type channels (Homo sapiens, UniProt O43497)
Construct: expressed in transfected cells
Test: Block of α1G T-type channels, whole-cell patch clamp in HEK cells
Format: cell-based
Conditions: −100 mV (non-inactivating protocol), test pulse −40 mV; read-out: IC50 at −100 mV
Entries and their measured IC50 follow.
Hi! Could you send only the number? It should be in nM, unit omitted.

Field: example entries. Status: answers known.
INSERT INTO results (molecule, tested_on, quantitative_readout) VALUES
  ('CN(C(=O)CC(c1ccccc1)c1ccccc1)[C@@H]1CCN(C(c2ccccc2)c2ccccc2)C1 [Compound P3]', 'human α1G T-type channels (Homo sapiens, UniProt O43497)', 910),
  ('CN(CC(=O)N(c1ccccc1)c1ccccc1)[C@H]1CCN(C(c2ccccc2)c2ccccc2)C1 [Compound P15]', 'human α1G T-type channels (Homo sapiens, UniProt O43497)', 692);

Ask: Fill in: IC50 of COc1c(C(C)(C)C)cc(C(=O)N(C)[C@H]2CCN(C(=O)CCCCC(c3ccc(F)cc3)c3ccc(F)cc3)C2)cc1C(C)(C)C [Compound P4] is ___
Result: 230

* * *

Molecular target: rat brain N-type calcium channel subunits (α1B+α2δ+β1b cDNA subunits) (Rattus norvegicus, UniProt Q02294)
Construct: expressed in transfected cells; host or cells: HEK 293
Sequence (Q02294 whole entry): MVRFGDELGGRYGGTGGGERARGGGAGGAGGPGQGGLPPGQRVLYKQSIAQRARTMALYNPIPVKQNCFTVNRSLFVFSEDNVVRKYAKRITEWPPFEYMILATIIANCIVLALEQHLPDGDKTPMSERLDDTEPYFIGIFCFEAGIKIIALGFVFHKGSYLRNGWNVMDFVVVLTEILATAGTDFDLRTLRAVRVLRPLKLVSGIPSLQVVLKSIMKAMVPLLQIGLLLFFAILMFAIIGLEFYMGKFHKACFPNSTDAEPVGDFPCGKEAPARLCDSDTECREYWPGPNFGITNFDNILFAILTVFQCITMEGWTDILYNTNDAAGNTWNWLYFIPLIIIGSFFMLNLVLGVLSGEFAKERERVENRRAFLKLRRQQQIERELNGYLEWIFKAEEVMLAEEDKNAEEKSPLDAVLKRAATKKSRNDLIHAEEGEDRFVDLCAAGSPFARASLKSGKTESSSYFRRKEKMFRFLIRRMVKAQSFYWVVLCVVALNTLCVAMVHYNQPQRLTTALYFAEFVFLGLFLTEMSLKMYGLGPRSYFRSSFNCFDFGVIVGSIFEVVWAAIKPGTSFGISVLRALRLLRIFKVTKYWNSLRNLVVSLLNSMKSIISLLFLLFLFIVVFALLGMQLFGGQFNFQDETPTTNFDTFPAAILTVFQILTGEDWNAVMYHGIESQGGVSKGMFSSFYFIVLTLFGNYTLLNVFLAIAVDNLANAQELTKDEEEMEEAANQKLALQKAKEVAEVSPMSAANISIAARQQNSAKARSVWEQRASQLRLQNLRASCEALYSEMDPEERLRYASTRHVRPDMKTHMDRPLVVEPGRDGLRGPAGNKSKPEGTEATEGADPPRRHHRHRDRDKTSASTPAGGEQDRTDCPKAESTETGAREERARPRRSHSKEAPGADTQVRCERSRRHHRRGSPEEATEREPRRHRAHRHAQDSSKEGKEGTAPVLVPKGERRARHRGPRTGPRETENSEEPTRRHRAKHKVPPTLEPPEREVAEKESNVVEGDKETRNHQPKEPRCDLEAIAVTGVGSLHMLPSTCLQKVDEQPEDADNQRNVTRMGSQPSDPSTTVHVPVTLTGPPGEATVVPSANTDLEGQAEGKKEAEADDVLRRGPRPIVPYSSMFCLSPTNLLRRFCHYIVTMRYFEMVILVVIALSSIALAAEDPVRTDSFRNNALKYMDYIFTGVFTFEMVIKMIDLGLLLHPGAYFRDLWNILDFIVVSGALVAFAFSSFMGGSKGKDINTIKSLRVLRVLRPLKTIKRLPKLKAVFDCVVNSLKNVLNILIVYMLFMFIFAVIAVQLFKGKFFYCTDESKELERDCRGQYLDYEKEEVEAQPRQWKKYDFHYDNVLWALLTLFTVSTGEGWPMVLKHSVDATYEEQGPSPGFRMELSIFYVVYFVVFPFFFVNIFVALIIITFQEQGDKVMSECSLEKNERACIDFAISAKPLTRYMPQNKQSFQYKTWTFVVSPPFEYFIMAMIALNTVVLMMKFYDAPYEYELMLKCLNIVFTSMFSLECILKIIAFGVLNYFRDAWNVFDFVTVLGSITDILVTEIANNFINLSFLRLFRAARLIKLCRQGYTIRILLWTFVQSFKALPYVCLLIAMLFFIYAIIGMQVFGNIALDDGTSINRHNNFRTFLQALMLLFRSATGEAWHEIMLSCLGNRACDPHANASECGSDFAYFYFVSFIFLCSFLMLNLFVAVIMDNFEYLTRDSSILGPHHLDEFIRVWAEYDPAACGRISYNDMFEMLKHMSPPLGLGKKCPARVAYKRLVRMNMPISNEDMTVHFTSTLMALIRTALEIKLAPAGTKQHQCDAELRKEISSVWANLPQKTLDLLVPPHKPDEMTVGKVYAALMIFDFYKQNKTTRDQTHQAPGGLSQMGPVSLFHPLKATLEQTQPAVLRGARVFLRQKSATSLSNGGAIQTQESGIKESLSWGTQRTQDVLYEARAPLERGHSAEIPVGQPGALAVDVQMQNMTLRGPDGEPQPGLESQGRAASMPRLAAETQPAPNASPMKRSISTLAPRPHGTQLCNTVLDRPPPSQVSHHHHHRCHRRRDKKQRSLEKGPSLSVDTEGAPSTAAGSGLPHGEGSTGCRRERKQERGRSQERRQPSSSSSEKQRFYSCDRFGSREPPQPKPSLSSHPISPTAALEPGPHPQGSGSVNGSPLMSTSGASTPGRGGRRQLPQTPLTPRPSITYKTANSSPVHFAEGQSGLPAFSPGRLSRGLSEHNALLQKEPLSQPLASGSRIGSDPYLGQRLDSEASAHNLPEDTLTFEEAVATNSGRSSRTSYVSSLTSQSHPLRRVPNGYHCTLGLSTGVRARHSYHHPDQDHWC
Sequence (P54290 25-944 partner limits assumed): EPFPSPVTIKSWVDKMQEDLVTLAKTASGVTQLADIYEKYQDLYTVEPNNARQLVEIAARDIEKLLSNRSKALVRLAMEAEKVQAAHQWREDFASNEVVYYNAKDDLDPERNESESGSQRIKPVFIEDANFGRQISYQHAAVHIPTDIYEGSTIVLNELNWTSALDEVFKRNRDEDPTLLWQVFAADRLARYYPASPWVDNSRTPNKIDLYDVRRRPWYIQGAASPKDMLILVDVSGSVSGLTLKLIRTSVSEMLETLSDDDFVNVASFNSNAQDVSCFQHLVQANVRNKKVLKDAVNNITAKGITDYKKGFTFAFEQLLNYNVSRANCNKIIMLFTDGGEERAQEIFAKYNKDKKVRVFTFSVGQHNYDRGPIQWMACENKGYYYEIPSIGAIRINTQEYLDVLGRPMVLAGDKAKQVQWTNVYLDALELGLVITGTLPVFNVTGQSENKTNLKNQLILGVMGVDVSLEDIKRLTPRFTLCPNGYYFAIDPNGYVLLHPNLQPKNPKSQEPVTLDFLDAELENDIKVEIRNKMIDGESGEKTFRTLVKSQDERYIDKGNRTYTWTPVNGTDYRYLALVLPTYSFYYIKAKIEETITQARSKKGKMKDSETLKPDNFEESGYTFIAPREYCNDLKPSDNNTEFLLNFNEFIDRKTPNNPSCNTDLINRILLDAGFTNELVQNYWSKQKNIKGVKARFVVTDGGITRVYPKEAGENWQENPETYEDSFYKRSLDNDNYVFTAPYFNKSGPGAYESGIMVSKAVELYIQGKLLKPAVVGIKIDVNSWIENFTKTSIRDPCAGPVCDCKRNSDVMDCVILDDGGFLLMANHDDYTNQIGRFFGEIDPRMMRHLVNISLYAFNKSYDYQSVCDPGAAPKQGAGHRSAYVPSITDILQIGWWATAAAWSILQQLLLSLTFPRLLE
Sequence (P54290 945-1091 partner limits assumed): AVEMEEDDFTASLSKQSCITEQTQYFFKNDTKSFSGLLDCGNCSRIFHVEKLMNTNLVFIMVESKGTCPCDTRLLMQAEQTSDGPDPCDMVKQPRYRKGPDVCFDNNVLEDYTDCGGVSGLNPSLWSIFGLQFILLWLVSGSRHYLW
Sequence (P54283 whole entry partner): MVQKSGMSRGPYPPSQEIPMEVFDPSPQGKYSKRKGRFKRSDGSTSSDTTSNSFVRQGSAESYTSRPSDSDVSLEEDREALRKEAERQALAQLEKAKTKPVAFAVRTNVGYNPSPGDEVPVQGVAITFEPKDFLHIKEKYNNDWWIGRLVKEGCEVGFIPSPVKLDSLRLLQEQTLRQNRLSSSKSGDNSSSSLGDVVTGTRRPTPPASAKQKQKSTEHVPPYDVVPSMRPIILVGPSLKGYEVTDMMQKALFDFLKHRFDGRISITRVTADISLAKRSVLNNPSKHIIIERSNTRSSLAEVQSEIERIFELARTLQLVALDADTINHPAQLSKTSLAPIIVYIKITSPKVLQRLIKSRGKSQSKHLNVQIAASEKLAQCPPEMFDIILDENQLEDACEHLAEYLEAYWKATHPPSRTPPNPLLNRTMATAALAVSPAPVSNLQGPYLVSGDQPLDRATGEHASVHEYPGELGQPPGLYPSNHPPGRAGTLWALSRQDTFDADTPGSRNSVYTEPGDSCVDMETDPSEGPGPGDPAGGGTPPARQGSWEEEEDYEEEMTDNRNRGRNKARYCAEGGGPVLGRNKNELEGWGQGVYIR
Assay: N-type calcium channel block, whole cell patch clamp in HEK 293 cells
Assay type: cell-based
Settings: frequency dependent block, pulse frequency 0.2 Hz, holding potential −80 mV to +10 mV, 5 mM BaCl2; read-out: IC50 at 0.2 Hz
Entries and their measured IC50 follow.
Hi! Could you send only the number? It should be in nM, unit omitted.

Ask: Fill in: IC50 of CN(C(=O)CC(c1ccccc1)c1ccccc1)[C@@H]1CCN(C(c2ccccc2)c2ccccc2)C1 [Compound P3] is ___
Result: 44

Ask: Fill in: IC50 of COc1c(C(C)(C)C)cc(C(=O)N(C)[C@@H]2CCN(C(=O)CCCCC(c3ccc(F)cc3)c3ccc(F)cc3)C2)cc1C(C)(C)C [Compound P1] is ___
Result: 91

Ask: Fill in: IC50 of CN(C(=O)CC(c1ccccc1)c1ccccc1)[C@H]1CCN(C(c2ccccc2)c2ccccc2)C1 [Compound P6] is ___
Result: 365

Ask: Fill in: IC50 of CN(C(=O)CC(c1ccccc1)c1ccccc1)[C@H]1CCN(Cc2ccncc2)C1 [Compound P13] is ___
Result: 471

Ask: Fill in: IC50 of CN(C(=O)CC(c1ccccc1)c1ccccc1)[C@@H]1CCN(Cc2ccccn2)C1 [Compound P9] is ___
Result: 617

Ask: Fill in: IC50 of CN(C(=O)CN(c1ccccc1)c1ccccc1)[C@H]1CCN(C(c2ccccc2)c2ccccc2)C1 [Compound P14] is ___
Result: 252

Ask: Fill in: IC50 of CN(C(=O)CC(c1ccccc1)c1ccccc1)[C@@H]1CCN(C(c2ccccc2)c2cccnc2)C1 (stereo partly shown) [Compound P11] is ___
Result: 302

* * *

Molecular target: rat brain N-type calcium channel subunits (α1B+α2δ+β1b cDNA subunits) (Rattus norvegicus, UniProt Q02294)
Construct: expressed in transfected cells; host or cells: HEK 293
Assay: N-type calcium channel block, whole cell patch clamp in HEK 293 cells
Format: cell-based
Details: frequency dependent block, pulse frequency 0.2 Hz, holding potential −80 mV to +10 mV, 5 mM BaCl2; read-out: IC50 at 0.2 Hz
Observed Property: IC50 (nM)
Hi! Could you send only the number? It should be in nM, unit omitted.

INSERT INTO results (compound, quantitative_readout) VALUES
  ('CN(C(=O)CC(c1ccccc1)c1ccccc1)[C@@H]1CCN(Cc2cccnc2)C1', 987),
  ('CN(C(=O)CC(c1ccccc1)c1ccccc1)[C@@H]1CCN(C(c2ccccc2)c2ccccn2)C1 (stereo partly drawn)', 285),
  ('CN(CC(=O)N(c1ccccc1)c1ccccc1)[C@H]1CCN(C(c2ccccc2)c2ccccc2)C1', 216),
  ('CN(C(=O)CC(c1ccccc1)c1ccccc1)[C@@H]1CCN(C(c2ccccc2)c2ccncc2)C1 (stereo partly drawn)', 520),
  ('COc1c(C(C)(C)C)cc(C(=O)N(C)[C@H]2CCN(C(=O)CCCCC(c3ccc(F)cc3)c3ccc(F)cc3)C2)cc1C(C)(C)C', 62);

Ask: Fill in: IC50 of CN(C(=O)NC(c1ccccc1)c1ccccc1)[C@H]1CCN(C(c2ccccc2)c2ccccc2)C1 is ___
Result: 601

* * *

Molecular target: human α1G T-type channels (Homo sapiens)
Construct: expressed in transfected cells
Assay: Block of α1G T-type channels, whole-cell patch clamp in HEK cells
Assay type: cell-based
Details: −80 mV (inactivation protocol), test pulse −40 mV; read-out: IC50 at −80 mV
Entries and their measured IC50 follow.
Hi! Could you send only the number? It should be in nM, unit omitted.

Field: example entries. Status: answers known.
INSERT INTO measurements (compound, quantitative_readout) VALUES
  ('CN(C(=O)CC(c1ccccc1)c1ccccc1)[C@H]1CCN(C(c2ccccc2)c2ccccc2)C1', 455),
  ('CN(C(=O)CC(c1ccccc1)c1ccccc1)[C@@H]1CCN(C(c2ccccc2)c2ccccn2)C1 (some centres unmarked)', 335),
  ('CN(C(=O)CC(c1ccccc1)c1ccccc1)[C@@H]1CCN(C(c2ccccc2)c2ccncc2)C1 (some centres unmarked)', 882);

Ask: Fill in: IC50 of COc1c(C(C)(C)C)cc(C(=O)N(C)[C@@H]2CCN(C(=O)CCCCC(c3ccc(F)cc3)c3ccc(F)cc3)C2)cc1C(C)(C)C [Compound P1] is ___
Result: 8

* * *

Entries and their measured pIC50 follow.
Target: human α1G T-type channels (Homo sapiens, UniProt O43497)
Construct: expressed in transfected cells
Experiment: Block of α1G T-type channels, whole-cell patch clamp in HEK cells
Assay type: cell-based
Conditions: −80 mV (inactivation protocol), test pulse −40 mV; read-out: IC50 at −80 mV
Would you please state pIC50, meaning minus log10 of the concentration in mol/L, as a bare number?

Field: example entries. Status: answers known.
INSERT INTO assay_data (molecule, tested_on, observed_property, quantitative_readout) VALUES
  ('CN(C(=O)CC(c1ccccc1)c1ccccc1)[C@@H]1CCN(C(c2ccccc2)c2cccnc2)C1 (stereo partly shown) [Compound P11]', 'human α1G T-type channels (Homo sapiens, UniProt O43497)', 'pIC50', 6.43),
  ('CN(C(=O)CC(c1ccccc1)c1ccccc1)[C@H]1CCN(Cc2ccncc2)C1 [Compound P13]', 'human α1G T-type channels (Homo sapiens, UniProt O43497)', 'pIC50', 6.31);

Ask: Fill in: pIC50 of CN(C(=O)CC(c1ccccc1)c1ccccc1)[C@@H]1CCN(C(c2ccccc2)c2ccccc2)C1 [Compound P3] is ___
Result: 6.44

Ask: Fill in: pIC50 of COc1c(C(C)(C)C)cc(C(=O)N(C)[C@H]2CCN(C(=O)CCCCC(c3ccc(F)cc3)c3ccc(F)cc3)C2)cc1C(C)(C)C [Compound P4] is ___
Result: 6.41

Ask: Fill in: pIC50 of CN(C(=O)CN(c1ccccc1)c1ccccc1)[C@H]1CCN(C(c2ccccc2)c2ccccc2)C1 [Compound P14] is ___
Result: 7.00

Ask: Fill in: pIC50 of CN(C(=O)NC(c1ccccc1)c1ccccc1)[C@H]1CCN(C(c2ccccc2)c2ccccc2)C1 [Compound P16] is ___
Result: 6.03

Ask: Fill in: pIC50 of CN(CC(=O)N(c1ccccc1)c1ccccc1)[C@H]1CCN(C(c2ccccc2)c2ccccc2)C1 [Compound P15] is ___
Result: 6.94
